test target: human TLR2 (Pam3CSK4, TLR1/2 agonist) in HEK-Blue hTLR2 cells (Homo sapiens)
Construct: host or cells: HEK-Blue hTLR2 (HEK-293)
Sequence (O60603 19-784 limits assumed): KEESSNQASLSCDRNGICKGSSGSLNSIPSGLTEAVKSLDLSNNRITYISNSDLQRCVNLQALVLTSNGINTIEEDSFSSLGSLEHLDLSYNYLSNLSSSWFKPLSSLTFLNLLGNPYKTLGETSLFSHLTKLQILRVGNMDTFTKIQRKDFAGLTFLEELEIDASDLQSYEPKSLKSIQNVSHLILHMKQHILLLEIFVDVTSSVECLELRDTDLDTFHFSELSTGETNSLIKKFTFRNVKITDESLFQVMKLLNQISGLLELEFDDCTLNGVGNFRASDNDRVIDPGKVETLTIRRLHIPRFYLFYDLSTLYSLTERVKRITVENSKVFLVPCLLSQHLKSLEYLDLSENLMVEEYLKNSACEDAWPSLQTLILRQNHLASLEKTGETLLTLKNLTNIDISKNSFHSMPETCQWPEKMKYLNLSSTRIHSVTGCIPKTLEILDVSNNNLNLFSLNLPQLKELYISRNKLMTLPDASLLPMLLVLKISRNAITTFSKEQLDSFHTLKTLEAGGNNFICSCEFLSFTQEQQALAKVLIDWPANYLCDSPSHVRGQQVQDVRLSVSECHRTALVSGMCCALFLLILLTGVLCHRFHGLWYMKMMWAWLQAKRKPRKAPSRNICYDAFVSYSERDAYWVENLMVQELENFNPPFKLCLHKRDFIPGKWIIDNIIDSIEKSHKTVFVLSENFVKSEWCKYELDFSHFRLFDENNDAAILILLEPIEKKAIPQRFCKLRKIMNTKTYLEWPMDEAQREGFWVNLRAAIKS
assay protocol: HEK-Blue hTLR2 antagonism assay (SEAP reporter) with Pam3CSK4 as agonist
Format: cell-based
experimental setup: 2 h compound pre-incubation, approx. 3×EC50 Pam3CSK4, 18 h, SEAP OD 655 nm, background subtracted
measurement label: IC50 (µM)
Return type: number; implicit unit µM.

Fill in: IC50 of COc1cc(-c2cc3c(s2)CCN(C(C)C)C3)cc(C=O)c1O is ___
10

Follow-up item: COc1cc(/C=C\c2ccc(N3CCOCC3)cc2)cc(C=O)c1O
29.8

Then O=Cc1cc(/C=C/c2ccc(N3CCCC3)cn2)cc(F)c1O ?
3.3

And for O=Cc1c(O)cc(/C=C/c2ccc(N3CCCCC3)cc2)cc1F ?
2.5

Continue with Oc1c(F)cc(/C=C/c2ccc(N3CCCC3)cc2)cc1/C=N/N1CCN(C2CC2)CC1
32.3

Now give it for COCCOc1ccc(/C=C/c2cc(F)c(O)c(C=O)c2)cc1 too.
4.1

Here is the next molecule: COc1cc(-c2cc3c(s2)CCN(C(=O)C2CC2)C3)cc(/C=C/C(=O)c2ccccc2)c1O
4.8

Input COc1cc(/C=C/c2ccc(C)nc2)cc(C=O)c1O
9.3

Try this molecule next: O=S(=O)(N/N=C/c1cc(/C=C/c2ccc(N3CCCC3)cc2)cc(F)c1O)c1ccccc1
13.2

Same thing, different molecule: COc1cc(/C=C/c2ccc(F)cc2F)cc(C=O)c1O
2.3

Another molecule: COc1cc(-c2cc3c(s2)CCN(C(=O)C2CC2)C3)cc(C=O)c1O
4.2
